# target desc: RAR-γ (Homo sapiens)
# Construct: expressed in transfected cells; host or cells: COS-1 (African green monkey kidney cells), transient lipofection
# Sequence (P13631 whole entry): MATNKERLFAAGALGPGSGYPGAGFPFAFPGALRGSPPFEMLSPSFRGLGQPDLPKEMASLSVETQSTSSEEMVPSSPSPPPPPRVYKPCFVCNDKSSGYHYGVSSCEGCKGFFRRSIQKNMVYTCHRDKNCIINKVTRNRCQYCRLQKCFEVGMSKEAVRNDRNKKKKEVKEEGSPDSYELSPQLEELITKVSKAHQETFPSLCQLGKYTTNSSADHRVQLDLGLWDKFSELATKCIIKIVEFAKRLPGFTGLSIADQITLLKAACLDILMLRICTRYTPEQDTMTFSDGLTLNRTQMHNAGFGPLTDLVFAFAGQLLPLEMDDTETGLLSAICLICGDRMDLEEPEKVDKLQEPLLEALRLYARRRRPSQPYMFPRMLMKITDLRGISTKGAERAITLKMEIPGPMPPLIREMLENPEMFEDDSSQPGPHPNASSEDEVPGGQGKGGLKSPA
# test summary: Transcription accelerating activity through RARs (PLAP reporter in COS-1 cells)
# Type: cell-based
# condition set: relative to ED30 of all-trans retinoic acid = 1, ED30 = concentration giving 30% of activity induced by 1 μM all-trans retinoic acid
Parameter threshold = 60. Response is fulfilled when Transcription accelerating activity Relative ED30 RAR-γ meets or exceeds it, else not fulfilled.

[[record]]
molecule = "CCc1cc(Cl)cc2cc(-c3ccc(-c4ccc(C(=O)O)cc4)[nH]3)oc12 [Example 23]"
answer_label = "fulfilled"

[[record]]
molecule = "Cc1ccc(C)c2oc(-c3ccc(-c4ccc(C(=O)O)cc4)[nH]3)cc12 [Example 13]"
answer_label = "not fulfilled"

[[record]]
molecule = "O=C(O)c1ccc(-c2ccc(-c3cc4c(F)ccc(Cl)c4o3)[nH]2)cc1 [Example 42]"
answer_label = "fulfilled"

[[record]]
molecule = "Cc1ccc(C)c2c(C)c(-c3ccc(-c4ccc(C(=O)O)cc4)[nH]3)oc12 [Example 47]"
answer_label = "not fulfilled"

[[record]]
molecule = "Cc1cccc2c1C=C(c1ccc(-c3ccc(C(=O)O)cc3)[nH]1)CO2 [Example 129]"
answer_label = "fulfilled"


Next up:
Exercise: Can Cc1ccc(Cl)c2sc(-c3ccc(-c4ccc(C(=O)O)cc4)[nH]3)cc12 [Example 75] be said to have Transcription accelerating activity Relative ED30 RAR-γ at or above 60?
Key: fulfilled
